Experimental target: P300 (Homo sapiens)
Sequence (Q09472 whole entry): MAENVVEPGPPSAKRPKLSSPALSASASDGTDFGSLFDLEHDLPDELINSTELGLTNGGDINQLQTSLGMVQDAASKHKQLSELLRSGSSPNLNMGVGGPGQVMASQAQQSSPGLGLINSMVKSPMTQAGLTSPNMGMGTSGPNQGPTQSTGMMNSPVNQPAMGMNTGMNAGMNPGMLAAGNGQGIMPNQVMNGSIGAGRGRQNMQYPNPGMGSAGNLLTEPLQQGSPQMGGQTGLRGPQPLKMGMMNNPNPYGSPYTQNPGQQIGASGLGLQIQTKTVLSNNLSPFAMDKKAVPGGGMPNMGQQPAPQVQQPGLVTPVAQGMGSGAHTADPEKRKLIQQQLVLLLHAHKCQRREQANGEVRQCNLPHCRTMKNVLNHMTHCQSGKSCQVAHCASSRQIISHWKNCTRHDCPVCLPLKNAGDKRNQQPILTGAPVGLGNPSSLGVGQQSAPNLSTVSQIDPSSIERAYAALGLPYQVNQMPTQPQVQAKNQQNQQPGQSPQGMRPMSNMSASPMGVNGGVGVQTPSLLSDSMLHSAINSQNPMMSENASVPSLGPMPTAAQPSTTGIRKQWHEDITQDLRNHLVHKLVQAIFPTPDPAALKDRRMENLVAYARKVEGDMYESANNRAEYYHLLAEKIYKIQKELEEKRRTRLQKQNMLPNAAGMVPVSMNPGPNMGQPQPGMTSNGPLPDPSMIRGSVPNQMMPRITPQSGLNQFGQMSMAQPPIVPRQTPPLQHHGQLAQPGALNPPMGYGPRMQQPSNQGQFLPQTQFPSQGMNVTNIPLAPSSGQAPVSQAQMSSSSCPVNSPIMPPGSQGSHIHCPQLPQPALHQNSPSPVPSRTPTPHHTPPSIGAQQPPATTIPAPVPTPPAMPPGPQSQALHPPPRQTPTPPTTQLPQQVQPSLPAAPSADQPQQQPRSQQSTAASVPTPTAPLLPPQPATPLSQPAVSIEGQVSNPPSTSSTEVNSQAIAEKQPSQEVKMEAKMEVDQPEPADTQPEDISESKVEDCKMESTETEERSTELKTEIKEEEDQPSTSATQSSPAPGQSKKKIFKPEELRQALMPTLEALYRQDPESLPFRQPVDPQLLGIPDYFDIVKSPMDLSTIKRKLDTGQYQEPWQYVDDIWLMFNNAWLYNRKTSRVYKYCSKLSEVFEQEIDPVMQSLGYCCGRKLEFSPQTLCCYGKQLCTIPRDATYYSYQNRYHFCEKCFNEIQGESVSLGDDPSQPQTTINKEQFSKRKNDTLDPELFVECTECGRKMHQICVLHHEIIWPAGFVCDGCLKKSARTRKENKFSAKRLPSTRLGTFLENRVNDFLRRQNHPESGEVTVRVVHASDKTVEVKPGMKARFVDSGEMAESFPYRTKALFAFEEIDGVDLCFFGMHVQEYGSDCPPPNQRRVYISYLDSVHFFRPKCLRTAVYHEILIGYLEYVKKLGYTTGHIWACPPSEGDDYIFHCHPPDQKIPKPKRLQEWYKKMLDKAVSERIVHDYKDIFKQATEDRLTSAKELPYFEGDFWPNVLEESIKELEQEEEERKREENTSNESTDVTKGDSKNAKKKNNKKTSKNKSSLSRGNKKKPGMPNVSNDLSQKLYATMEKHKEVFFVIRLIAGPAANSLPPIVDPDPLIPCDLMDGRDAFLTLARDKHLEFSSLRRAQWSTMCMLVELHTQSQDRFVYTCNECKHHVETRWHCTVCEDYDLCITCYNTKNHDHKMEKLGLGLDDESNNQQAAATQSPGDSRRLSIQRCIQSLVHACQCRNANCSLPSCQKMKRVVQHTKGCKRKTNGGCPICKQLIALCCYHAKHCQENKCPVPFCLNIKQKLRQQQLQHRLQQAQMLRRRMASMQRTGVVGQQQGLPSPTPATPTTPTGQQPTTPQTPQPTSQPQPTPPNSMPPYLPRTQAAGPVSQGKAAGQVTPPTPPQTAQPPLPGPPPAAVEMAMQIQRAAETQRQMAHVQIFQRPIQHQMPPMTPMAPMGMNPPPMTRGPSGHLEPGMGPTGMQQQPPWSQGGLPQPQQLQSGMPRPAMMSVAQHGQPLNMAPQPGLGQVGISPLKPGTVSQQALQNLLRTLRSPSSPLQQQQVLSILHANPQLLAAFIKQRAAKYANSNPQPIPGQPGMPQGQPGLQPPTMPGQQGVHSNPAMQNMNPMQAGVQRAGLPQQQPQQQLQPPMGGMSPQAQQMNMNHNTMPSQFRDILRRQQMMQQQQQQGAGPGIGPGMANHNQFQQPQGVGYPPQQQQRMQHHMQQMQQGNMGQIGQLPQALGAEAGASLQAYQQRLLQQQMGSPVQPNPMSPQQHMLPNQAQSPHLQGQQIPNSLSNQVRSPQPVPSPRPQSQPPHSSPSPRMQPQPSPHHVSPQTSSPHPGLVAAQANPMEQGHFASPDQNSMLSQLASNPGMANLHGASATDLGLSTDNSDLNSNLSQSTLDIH
Assay summary: percentage of inhibition (degradation) of p300 at 10 nM, Tables 2-4
Assay type: cell-based
Set-up: LNCaP or 22RV1 cells that express CBP/P300 proteins were treated with GNE-781 or the bivalent compounds; endogenous in cells; host or cells: LNCaP or 22RV1 (not given)
Condition: p300, 10 nM; Table 3
Result type: Degradation (10 nM)

INSERT INTO results (compound, experimental_target, value_reported) VALUES
  ('CC(=O)N1CCc2c(c(N3CCCc4cc(-c5cnn(C)c5)c(C(F)F)cc43)nn2C2CCN(C(=O)CCCCCCCCn3c(=O)n(C4CCC(=O)NC4=O)c4ccccc43)CC2)C1 (stereo not drawn)', 'P300 (Homo sapiens)', 'A (A: Degradation ≥ 80%)'),
  ('CC(=O)N1CCc2c(c(N3CCCc4cc(-c5cnn(C)c5)c(C(F)F)cc43)nn2C2CCN(C(=O)CCCCCCCn3c(=O)n(C4CCC(=O)NC4=O)c4ccccc43)CC2)C1 (stereo not drawn)', 'P300 (Homo sapiens)', 'A (A: Degradation ≥ 80%)'),
  ('CC(=O)N1CCc2c(c(N3CCCc4cc(-c5cnn(C)c5)c(C(F)F)cc43)nn2C2CCN(CCN3CCC(CNc4cccc5c4C(=O)N(C4CCC(=O)NC4=O)C5=O)CC3)CC2)C1 (stereo not drawn)', 'P300 (Homo sapiens)', 'A (A: Degradation ≥ 80%)');
